# System: J82
# procedure-details: Cytotoxicity against human J82 cells after 3 days by MTT assay
# Type: functional, cell-based
# assay-setup: J82, 72 h
readout-type: IC50

Give measured IC50 for every item shown.
1. COC(=O)N1CCc2c3n(c4ccccc24)[C@@H](O)CCC[C@@H]31
2. Brc1ccc2c3c([nH]c2c1)[C@@H]1CCCCN1CC3 [ARBORESCIDINE A]
3. C=CCCC[C@H]1c2[nH]c3ccccc3c2CCN1C(=O)OC

Solution:
1. 72.8 µM
2. > 100 µM
3. > 100 µM

Sourced from ChEMBL document CHEMBL1153615
